target: Lysine-specific demethylase 4A (Homo sapiens); test: qHTS Assay for Inhibitors of JMJD2A-Tudor Domain; settings: AlphaScreen JMJD2A-Tudor / H3K4me3 peptide binding; series mostly up to 114 µM; note: nearly all actives have a fitted effect of over 50% in size
Hit rate of the full screen: of about 390,000 compounds, about 17,000 (4.4%) were called active. Inconclusive results (about 8%) are left out. Calls come from the whole dose curve; as a rule, active = well fitted inhibition curve with a large enough effect; inconclusive = small, poorly fitted or top-dose-only effect; inactive = no such curve, though single readings can be large or run the other way. This excerpt belongs to a sample that is enriched for actives.
The reply should be one of these categories: active, inactive

Here's what some known entries look like.
Hi team, can someone confirm the assay call for COc1ccc(-c2cc(=O)oc3cc(OC(C)C(=O)Nc4ccc(CN5CCOCC5)cc4)ccc23)cc1 (stereo unspecified) ?
inactive

GET /call?item= COc1ccc(-c2nc3ccccc3o2)cc1NC(=O)c1cc([N+](=O)[O-])ccc1N1CCOCC1 returns the recorded outcome of this test.
inactive

Returns: the outcome recorded for CC(OC(=O)c1cc2ccccc2o1)C(=O)Nc1ccc(N2CCOCC2)cc1 (stereo unspecified) in this assay.
inactive

Which outcome was assigned to O=C(NC1CC(=O)N(c2ccccc2)C1)c1ccco1 (stereo unspecified) in this test?
inactive

Further cases:
Fill in: this test's call for CC1=NOC(=O)/C1=C\c1ccccc1 is ___
active

State the result this test recorded for COc1ccccc1CNC(=O)c1ccc(CS(=O)(=O)c2ccccc2)o1 .
inactive

What did this assay record as the result for CNc1nnc(-c2ccco2)s1 ?
inactive

Test call for this compound, please: COc1ccc(/C=C2/C(=O)OCc3cc(OC)c(OC)cc32)c(OC)c1
inactive

Assay result, entry COc1ccc(-c2nc(C)c(CCNC(=O)c3ccc(C(F)(F)F)cc3)s2)cc1OC — outcome?
inactive

Just curious, what result did COc1ccc(NC(=O)c2ccc3nc(CCc4ccccc4)oc3c2)c(OC)c1 get here?
inactive
